These data points were gathered from patent US10253078.

Molecular target: T1, human GIP receptor (human, UniProt P48546 22-466)
T1 sequence (looked up): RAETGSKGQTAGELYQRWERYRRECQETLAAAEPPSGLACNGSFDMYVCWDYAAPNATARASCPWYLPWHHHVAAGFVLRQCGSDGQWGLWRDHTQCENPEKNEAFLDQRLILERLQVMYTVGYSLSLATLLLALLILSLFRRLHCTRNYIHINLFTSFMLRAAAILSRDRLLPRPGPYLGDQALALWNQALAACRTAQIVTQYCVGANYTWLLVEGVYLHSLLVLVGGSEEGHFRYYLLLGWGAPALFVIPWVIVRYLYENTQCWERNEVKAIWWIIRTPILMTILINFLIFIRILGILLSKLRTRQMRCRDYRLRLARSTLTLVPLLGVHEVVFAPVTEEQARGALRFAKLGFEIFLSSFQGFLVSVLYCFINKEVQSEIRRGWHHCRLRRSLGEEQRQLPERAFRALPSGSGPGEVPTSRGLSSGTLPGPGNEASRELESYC
Assay: cell-based or functional assay
Starred links: 1 amine or outer side, 2 acyl side, 3 side chain; linkers in the order of their positions; H or OH if unused. Non-standard residues stand in square brackets, D forms with d. Groups on a side chain read outwards from the residue. *: point of attachment. C20 diacid = O=C(O)CCCCCCCCCCCCCCCCCCC(=O)*; γGlu = O=C(O)[C@H](CCC(=O)[*:2])N[*:1]; Aib = CC(C)(N)C(=O)O
Measured attribute: EC50, hGIP-R level of cAMP (HEK293 cells expressing human GIP R) (nM)

Binder: H-Y[Aib]EGTFISDYSIELDKK([Peg3-Peg3-γGlu-C20 diacid])AAQDFIEWLLAGPSSGAPPPS-NH2 [Compound 32]
Result unit: nM
Observed result: 0.02
//
Binder: H-Y[Aib]EGTFISDYSIELDKIAAQDFIEWLLAGPSSGAPPPSK([Peg3-Peg3-γGlu-C20 diacid])-NH2 [Compound 25]
Result unit: nM
Observed result: 0.032
//
Binder: H-Y[Aib]EGTFISDYSIELDKK([Peg3-Peg3-γGlu-C20 diacid])AAQAFIEWLLAQGPSSGAPPPS-NH2 [Compound 40]
Result unit: nM
Observed result: 0.01
//
Binder: H-Y[Aib]EGTFISDYSIELEKK([Peg3-Peg3-γGlu-C20 diacid])AAKEFVNWLLAQGPSSGAPPPS-NH2 [Compound 11]
Result unit: nM
Observed result: 0.009
//
Binder: YAEGTFISDYSIELDKKAQKEFVEWLLAAGPSSGAPPPS (Aib at 2; Lys 17 side chain acylated: K((19-Carboxy-nonadecanoyl)-[(Piperazine-1-yl)-acetyl]-Peg3-Peg3); C-terminal amide (-NH2)) [Compound 21]
Result unit: nM
Observed result: 0.007
